FYI, the data here is from ChEMBL document CHEMBL1165965.

target: UniProt:P21709; assay: Inhibition of EPHA1 at 1 uM
Sequence (P21709 whole entry): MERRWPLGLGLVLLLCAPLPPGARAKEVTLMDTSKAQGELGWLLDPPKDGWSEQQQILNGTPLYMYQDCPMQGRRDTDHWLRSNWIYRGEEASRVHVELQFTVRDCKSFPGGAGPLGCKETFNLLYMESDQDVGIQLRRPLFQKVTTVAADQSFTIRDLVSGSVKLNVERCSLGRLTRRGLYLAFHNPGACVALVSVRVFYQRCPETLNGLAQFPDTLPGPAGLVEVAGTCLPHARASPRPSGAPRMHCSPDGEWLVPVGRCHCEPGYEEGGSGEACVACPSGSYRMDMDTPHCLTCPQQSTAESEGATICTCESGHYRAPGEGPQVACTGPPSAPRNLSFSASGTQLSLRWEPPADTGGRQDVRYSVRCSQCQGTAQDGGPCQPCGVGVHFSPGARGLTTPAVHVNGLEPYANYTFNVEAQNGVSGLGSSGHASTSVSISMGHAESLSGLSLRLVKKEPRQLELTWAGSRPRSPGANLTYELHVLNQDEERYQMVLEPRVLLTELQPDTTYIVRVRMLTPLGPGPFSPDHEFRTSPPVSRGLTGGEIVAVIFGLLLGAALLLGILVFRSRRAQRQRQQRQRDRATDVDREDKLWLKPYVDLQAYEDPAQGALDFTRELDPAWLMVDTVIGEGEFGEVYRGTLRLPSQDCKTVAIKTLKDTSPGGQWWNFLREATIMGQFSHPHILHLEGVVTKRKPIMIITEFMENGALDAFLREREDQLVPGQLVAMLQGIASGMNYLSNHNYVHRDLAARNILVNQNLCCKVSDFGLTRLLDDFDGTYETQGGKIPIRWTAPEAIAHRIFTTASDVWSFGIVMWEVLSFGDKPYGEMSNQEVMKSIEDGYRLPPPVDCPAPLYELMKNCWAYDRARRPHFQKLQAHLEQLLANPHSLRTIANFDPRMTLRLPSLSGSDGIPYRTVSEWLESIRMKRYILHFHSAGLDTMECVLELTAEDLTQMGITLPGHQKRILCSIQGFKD
I'd be grateful if you could share measured inhibition for these entries.

### Prompt Hi! What's the reported inhibition for `CN1CCN(c2ccc(-c3cnc4c(c3)N(Cc3c(F)ccc(F)c3Cl)CCN4)cn2)CC1` on UniProt:P21709?
### Response < 50%

### Prompt Now try `O=C(c1ccc(-c2cnc3c(c2)N(Cc2cc(Cl)ccc2C(F)(F)F)CCN3)cc1)N1CCC(N2CCCC2)CC1` .
### Response 81%

### Prompt Now try `O=C(O)c1ccc(-c2cnc3c(c2)N(Cc2cc(Cl)ccc2C(F)(F)F)CCN3)cc1` .
### Response < 50%

### Prompt Now try `CN1CCN(c2ccc(-c3cnc4c(c3)N(Cc3cc(Cl)ccc3Cl)CCN4)cn2)CC1` .
### Response < 50%

### Prompt Now try `COC1CCN(C(=O)c2ccc(-c3cnc4c(c3)N(Cc3cc(Cl)ccc3C(F)(F)F)CCN4)cc2)CC1` .
### Response < 50%

### Prompt Now try `O=C(c1ccc(-c2cnc3c(c2)N(Cc2cc(Cl)ccc2C(F)(F)F)CCN3)cc1)N1CCCCC1` .
### Response < 50%

### Prompt Now try `CC(=O)N1CCN(c2cc(-c3cnc4c(c3)N(Cc3cc(Cl)ccc3C(F)(F)F)CCN4)ccn2)CC1` .
### Response < 50%

### Prompt Now try `CN1CCN(c2ccc(-c3cnc4c(c3)N(Cc3cc(Cl)ccc3C(F)(F)F)CCN4)cn2)CC1` .
### Response < 50%

### Prompt Now try `CN1CCN(c2ccc(-c3cnc4c(c3)N(Cc3cc(F)ccc3F)CCN4)cn2)CC1` .
### Response 62.1%

### Prompt Now try `FC(F)(F)c1ccc(Cl)cc1CN1CCNc2ncc(-c3ccnc(N4CCNCC4)c3)cc21` .
### Response < 50%
